# target_of_assay: native soluble IL-6R in human plasma (human, UniProt P08887)
# assay_overview: ELISA 3, periplasmic extract; competitor BN-12; human plasma
readout_name: OD450 ratio sample/blank
Reply with the value as a number alone.

Ask: Name the recorded OD450 ratio sample/blank of the item IL6RPMP100A6 (VHH) VHH: EVQLVESGGGLVQAGDSLRLSCLASGRSFKDDAMGWFRQAPGKEREFVSGIDWRGNIVDAESVKGRFTISRENAKNTLYLQMNHLKPEDTAVYYCAASSVFSDLRYRKNPKYWGQGTQVTVSS in your answer.
Reply: 0.923

---
Ask: # return recorded OD450 ratio sample/blank for entry IL6RPMP101H3 (VHH) VHH: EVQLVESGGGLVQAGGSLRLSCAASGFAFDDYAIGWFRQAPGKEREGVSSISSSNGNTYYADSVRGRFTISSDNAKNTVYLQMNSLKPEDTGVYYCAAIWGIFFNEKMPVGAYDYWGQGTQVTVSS
Reply: 0.954
